tested on: Pichia kudriavzevii; assay: Antifungal activity against Candida krusei ATCC 6258 assessed as inhibition of microbial growth incubated for 24 hrs by broth microdilution method; format: functional, organism-based; conditions: ATCC 6258, time 24 hrs
IC90 by entry:
Lab book: enter the figure in µg/mL, no units written.

Q: Query: IC90; subject: C[C@@]12Oc3cc4oc(-c5ccc(O)cc5)cc(=O)c4c(O)c3[C@@H](C[C@H](O)[C@H]1O)O2
A: 250

====

system: Nakaseomyces glabratus; assay: Antifungal activity against Candida glabrata ATCC 90030 assessed as inhibition of microbial growth incubated for 24 hrs by broth microdilution method; assay type: functional, organism-based; conditions: ATCC 90030, 24 h
log10 IC50 by entry:
// do not treat as linear: log10 of IC50, unit µg/mL

See these solved cases before continuing.
>>> value_reported("O=c1c(O)c(-c2ccc(O)c(O)c2)oc2cc(O)cc(O)c12")
1.78
>>> value_reported("C[C@@]12Oc3cc4oc(-c5ccc(O)cc5)cc(=O)c4c(O)c3[C@@H](C[C@H](O)[C@H]1O)O2")
0.89
>>> value_reported("C[C@H]1O[C@@H](c2c(O)cc(O)c3c(=O)cc(-c4ccc(O)cc4)oc23)C[C@@H](O)[C@@H]1O")
0.59
>>> value_reported("O=C(O)/C=C/c1c(O)cc2oc(-c3ccc(O)cc3)cc(=O)c2c1O")
0.59
>>> value_reported("C[C@H]1O[C@@H](c2c(O)cc3oc(-c4ccc(O)cc4)cc(=O)c3c2O)C[C@H](O)[C@H]1O")
3.00

Q: Query: log10 IC50; subject: O=C(O)c1cc(O)c(O)c(O)c1
A: 1.78

Q: Query: log10 IC50; subject: OC(Cn1cncn1)(Cn1cncn1)c1ccc(F)cc1F
A: 0.60

Q: Query: log10 IC50; subject: C[C@@H]1O[C@@H](O[C@H]2C(=O)[C@@H](O)[C@H](C)O[C@@H]2c2c(O)cc(O)c3c(=O)cc(-c4ccc(O)c(O)c4)oc23)[C@H](O)[C@H](O)[C@H]1O
A: 1.78

====

test system: Pichia kudriavzevii; test: Antifungal activity against Candida krusei ATCC 6258 assessed as inhibition of microbial growth incubated for 24 hrs by broth microdilution method; type: functional, organism-based; conditions: ATCC 6258, time 24 hrs
reported metric: IC90 (mg/L)
Lab book: enter the figure in mg/L, no units written.

See these solved cases before continuing.
>>> value_reported("C[C@H]1O[C@@H](c2c(O)cc(O)c3c(=O)cc(-c4ccc(O)cc4)oc23)C[C@@H](O)[C@@H]1O")
250
>>> value_reported("O=C(O)/C=C/c1c(O)cc(O)c2c(=O)cc(-c3ccc(O)cc3)oc12")
250

Switching to the query record.
Q: Query: IC90; subject: C[C@H]1O[C@@H](c2c(O)cc3oc(-c4ccc(O)cc4)cc(=O)c3c2O)C[C@H](O)[C@H]1O
A: 1000
